- assay: yeast display, Sf9 membrane polyspecificity reagent, FACS + sequencing; frameworks hold sequencing errors
experimental.endpoint: polyreactivity (PSR sort gate)

# record.sequence, recorded.measurement
measured = [
    ("QVQLVESGGGLVQAGGSLRLSCAASGSIFPYNAMGWYRQAPGKERELVAAITTSGTSTYYADSVKGRFTISRDNAKNTVYLQMNSLKPEDTAVYYCAATSRGAISKARFYYWGQGTQVTVSS", "high polyreactivity"),
    ("QVQLVESGGGLVQAGGSLRISCAASGRTFSSYAMGWYRQAPGKERELVARISSSGGRTSYADSVKGRFTISRDNAKNTVYLQMNSLKPEDTAVYYCATEWSDRNDYWGQGTQVTVSS", "high polyreactivity"),
    ("QVQLVESGGGLVQAGGSLRLSCAASGRIFTRYAMGWYRQAPGKERELVAAINSGGSTKYADSVKGRFTISRDNAKHTVYLQMNSLKPEDTAVYYCNACYWWYGYDYWGQGTQVTVSS", "high polyreactivity"),
    ("QVQLVVSGGGLVQAAGSLRLSCAASGLTFANYVMGWYRQAPGKERELVASISISGGSTYYADSEKGRFTISRDNAKNTVYLQMNSLKPEDTAVYYCAASFVSSYQYAYWGQVTQVTVSS", "high polyreactivity"),
]

Exercise: Query: polyreactivity (PSR sort gate); subject: QVQLVESGGGLVQAGGSLRLSCAASGSTFTYYAMGWYRQAPGKERELVAAINYSGGSTYYADSVKGRFTISRDNAKNTVYLQMNSLKPEDTAVYYCAADGYIRQYVTYYYWGQGTQVTVSS
Solution: low polyreactivity

Exercise: Returns the measured polyreactivity (PSR sort gate) for the input sequence. Input: QVQLVESGGGLVQAGGSLRLSCAASGRIFYYNAMGWYRQAPGKERELVAAITYIGGNTHYADSVKGRFTISRDNAKNTVYFQMNSLKPEDTAVYYCARGTVLGFYYEYGYWGQGTQVTVSS
Solution: low polyreactivity

Exercise: Param item = QVQLVESGGGLVQAGGSLRLSCAASGSTIDYYTMGWYRQEPGKERELVAAISWSGGNTYYADSVKGRFTISRDNAKNTVYLQMNSLKPEDTAVYYCNRVNAYWLRYDYWGQGTQVSVSS ; retrieve measured polyreactivity (PSR sort gate).
Solution: high polyreactivity

Exercise: Looking for the measured polyreactivity (PSR sort gate) of QVQLVESGGGLVQAGGSLRLICAASGSIFGINAMGWYRQAPGKERELVAAITWSGTSTYYADSVKGRFTISRDNAKNTDYLQMNSMKPEDTAVYYCAARVGRGYRTYGYWGQGTQVTVSS , can you help?
Solution: high polyreactivity

Exercise: Form field: reported polyreactivity (PSR sort gate) of QVQLVESGGGLVQAGGSLRLSCAPSRRIFRSYAMGWYSQAPGKERELVAAISSRGSTYYADSVKGRFTISRDNEKNTVFLQMNSLKPEDTAVYYCAVHLWVYPLKREFYWGQGTQVTVSS
Solution: high polyreactivity

Exercise: polyreactivity (PSR sort gate) for QVQLVESRGGLVQAGGSLRLSCAASGFIFGVNAMGWYRQAPGKERELVAAITRNGGSTYYADSVKGRFTISRDYAKNSVYLQMNSLKPEDTAVYYCAKYVRRAPSTFDVDYWGQGTQVTVSS ?
Solution: high polyreactivity

Exercise: Reported polyreactivity (PSR sort gate), sequence QVQLVESGGGLVQAGGSLRLSCDASGLIFYSYAMGWYRQAPGKERELVAAISSRGGSTYYADSVKGRFTISRDNAKNTVYLQMNSLKQEDSAVYYCNAYFLLPHYDYWGQGTQVTVSS : ____
Solution: low polyreactivity

Exercise: Sample QVQLVESGGGLVQAGGSLRLICAASGIIFRYYAMGWYRQAPGKERELVASISRGGSTYYADSVKGRFTISRDNAKNTVYLQMNSLKPEDTAVYYCAADVYPVYLYGYEYCGQGTQVTVSS — what was its polyreactivity (PSR sort gate)?
Solution: high polyreactivity

Exercise: # query: polyreactivity (PSR sort gate) of entry QVQLVESGGGLVQAGGSLRLICAASGRTFKFNAMGWYRQAPGKERELVARITGGRTNYADSVKGRFTISRDNAKNTVYLQLNSLKPEDTAVYYCAADRYYGYSQDRRRYGYWGQGTQVTVSS
Solution: high polyreactivity

Exercise: What polyreactivity (PSR sort gate) value was documented for this sequence, QDQLVESRGGLVQAGGSLRLSCAASGFTFYRYAMGWYRQAPGKERELVAAITWRGTSTYYADSVKGRFTISRDNAKNTVYLQMNSLKPEDTAVYYCNADRGYKYDYWGQGTQVTVSS ?
Solution: high polyreactivity

Exercise: Can you look up the measured polyreactivity (PSR sort gate) of QVQLVESGGGLVQAGGSLRLSCAASGITFSFYAMGWYRQAPAKERELVATIDSGGSTNYADSVKWRFTISRDNAKNTVYLQMNSLKPEYTAVYYCAADGVWYYYDMDYWGQGTQVTVSS for me?
Solution: low polyreactivity

Exercise: I am curious: what polyreactivity (PSR sort gate) value has been reported for QVQLVESGGGLVQAGGSLRLSCAASGSTLGKYAMGWYRQAPGKERELVARITLNGGRTYYADSVKGRFTISRDNAKNTVYLQMNSLKPEDTAVYYCAKSLPHSTSRDYWGQGTQVTVSS ?
Solution: low polyreactivity

Exercise: Consider the sequence QVQLVESGGGLVQAGGSLRLSCAASGIIFRRYAMGWYRQAPGKERELVAAISSSGGNTYYADSVKGRFTISRDNAKNTVYLQMYSLKPEDTAVYYCAARSQIYYRYRSYGYWGQGTQVTVSS and give its measured polyreactivity (PSR sort gate).
Solution: high polyreactivity

Exercise: Please look up its polyreactivity (PSR sort gate): QVQLVESGGGLVQAGGSLRLSCAASGRIFVDNAMGWYRQAPGKESELVADITSGGSTYYADSVKGRFTISRDNAKNTVYLQMNSLKPEDTAVYYCAADYRVSSDYRYDYWGQGTQVTVSS
Solution: low polyreactivity

Exercise: # get_value(readout='polyreactivity (PSR sort gate)', item= QVQLQESGGGPVLAGGSLRLSCAASGTIFVRLDMGWYRQAPGKEREFVATIGSASSTYYADSVKGSFTISRDNVKNTVYLQMNSLKPEDTAVYYCAVSAAEQSRHYYWDQGTQVTVSS )
Solution: low polyreactivity

Exercise: I have this sequence here, QVQLVESGGGLVQAGGSLRLSCAASGSTFDPNAMGWYRQAPGKERELVASITSRGGSTYYADSVKGRFTISRDNAKNTVYLQMNSLKPEDTAVYYCAAVGGATYSWNGYSWYAWHNYWGQGTQVTVSS , and I need its recorded polyreactivity (PSR sort gate).
Solution: low polyreactivity

Exercise: For QVQLVESVGGLVQAGGSHRLSCAASGSIFYYYDMGWYRQGPGKERELFAAINRGVGSTFYADSVKGRFTISRENAKNTVYLQMNSLKPEDTAVDYCSSRWYSRTRAYNYWGQGTQVTVSS , what is its reported polyreactivity (PSR sort gate)?
Solution: low polyreactivity
